Molecular target: T1, CEACAM1 antigen (Sino Biological, Inc.) (UniProt P13688 35-428)
T1 construct: Bought antigen, coated on the ELISA plate; construct not described; also called CEACAM1 (CD66a) antigen; CD66a
T1 sequence (looked up): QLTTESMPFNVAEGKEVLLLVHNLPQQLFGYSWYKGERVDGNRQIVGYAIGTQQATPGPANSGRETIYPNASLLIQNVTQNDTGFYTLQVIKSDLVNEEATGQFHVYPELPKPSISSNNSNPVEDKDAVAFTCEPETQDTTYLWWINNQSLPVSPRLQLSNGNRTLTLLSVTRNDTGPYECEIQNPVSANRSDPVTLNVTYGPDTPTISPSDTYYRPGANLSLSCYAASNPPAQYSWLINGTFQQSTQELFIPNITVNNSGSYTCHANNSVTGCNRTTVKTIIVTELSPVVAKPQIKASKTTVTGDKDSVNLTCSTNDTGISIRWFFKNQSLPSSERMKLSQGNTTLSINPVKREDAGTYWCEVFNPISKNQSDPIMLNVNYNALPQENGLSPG
Assay: ELISA, CEACAM1 coated 100 ng/well, antibody at 10000.00 ng/ml
Value Kind: OD 450 nm (OD 450 nm)
The reply should be a number in OD 450 nm, with the unit left off.

Problem: For the binder recombinant humanized anti-CD66c antibody Protein ID 2938 (Vk5 + VH7) (antibody, human IgG1, V domains shown, also called hu 2938) VH: QVQLVQSGAEVKKPGASMKISCKASGYSFTDYTMNWVRQAPGQGLEWIGLINPFHGGTVSNQRFKVKATLTVDVSTNTAYMELSRLRSDDTAVYYCVRGDPVRHYYALAYWGQGTLVTVSS VL: DIQMTQSPSTLSASVGDRVTITCGASENVYGTLAWYQRKPGKAPKLLIYGATNLADGVPSRFSGSGSGREYTLTISSLQPDDFATYYCQNVLSAPYTFGGGTKLEIK , give its reported OD 450 nm.
Solution: 0.32
